Ref: PubChem BioAssay AID1963434

System: 755483-174-R-J1-PDC complex spheroid growth, percent test/control
MEASUREMENT PROTOCOL: Anticancer human tumor 755483-174-R-J1-PDC patient-derived rhabdomyosarcoma cell line growth inhibition [Asc]
ASSAY CONTEXT: second compound 0.316 µM; first compound 0.001 µM; stronger effect = lower value
For each of the compounds below, state its viability, T/C.
Express your answer in %, writing the number without its unit.

Give a short answer stating reported viability, T/C for Cn1ncnc1[C@H]1c2n[nH]c(=O)c3cc(F)cc(c23)N[C@@H]1c1ccc(F)cc1 + CNC(C)C(=O)NC1CN(S(=O)(=O)c2cccc(S(=O)(=O)N3CCC4CCC(C(=O)NC(c5ccccc5)c5ccccc5)N4C(=O)C(NC(=O)C(C)NC)C3)c2)CCC2CCC(C(=O)NC(c3ccccc3)c3ccccc3)N2C1=O .
23.6

Give a short answer stating reported viability, T/C for Cn1ncnc1[C@H]1c2n[nH]c(=O)c3cc(F)cc(c23)N[C@@H]1c1ccc(F)cc1 + Cc1c(S(C)(=O)=O)c(-c2cc(F)cc(N3CCN(c4ccc(NS(=O)(=O)c5ccc(NC(CCN6CCC(C(=O)OCCCP(=O)(O)O)CC6)CSc6ccccc6)c(S(=O)(=O)C(F)(F)F)c5)cc4)CC3)c2)c(-c2ccc(Cl)cc2)n1C(C)C .
41

Give a short answer stating reported viability, T/C for NC1CCC(NC2CC2c2ccccc2)CC1 (centres undefined) + CNC(C)C(=O)NC1CN(S(=O)(=O)c2cccc(S(=O)(=O)N3CCC4CCC(C(=O)NC(c5ccccc5)c5ccccc5)N4C(=O)C(NC(=O)C(C)NC)C3)c2)CCC2CCC(C(=O)NC(c3ccccc3)c3ccccc3)N2C1=O .
33.6

Give a short answer stating reported viability, T/C for NC1CCC(NC2CC2c2ccccc2)CC1 (centres undefined) + Cc1c(S(C)(=O)=O)c(-c2cc(F)cc(N3CCN(c4ccc(NS(=O)(=O)c5ccc(NC(CCN6CCC(C(=O)OCCCP(=O)(O)O)CC6)CSc6ccccc6)c(S(=O)(=O)C(F)(F)F)c5)cc4)CC3)c2)c(-c2ccc(Cl)cc2)n1C(C)C .
42.1

###

System: 755483-174-R-J1-PDC complex spheroid growth, percent test/control
MEASUREMENT PROTOCOL: Anticancer human tumor 755483-174-R-J1-PDC cell line growth inhibition [Asc];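 also: spheroids exposed to compounds for seven days before readout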
ASSAY CONTEXT: second compound 1 µM; first compound 0.949 µM; stronger effect = lower value
For each of the compounds below, state its viability, T/C.
Express your answer in %, writing the number without its unit.

Give a short answer stating reported viability, T/C for CCN1C(C(=O)NC23CCC(C(=O)O)(CC2)CC3)C(c2cccc(Cl)c2F)C2(C(=O)Nc3cc(Cl)ccc32)C12CCCCC2 (stereo not drawn) + Cc1c(S(C)(=O)=O)c(-c2cc(F)cc(N3CCN(c4ccc(NS(=O)(=O)c5ccc(NC(CCN6CCC(C(=O)OCCCP(=O)(O)O)CC6)CSc6ccccc6)c(S(=O)(=O)C(F)(F)F)c5)cc4)CC3)c2)c(-c2ccc(Cl)cc2)n1C(C)C .
29.2

Give a short answer stating reported viability, T/C for Cc1nc(N2CCC3(CC2)COC(C)C3N)c(CO)nc1Sc1ccnc(N)c1Cl (stereo not drawn) + CNC(C)C(=O)NC1CN(S(=O)(=O)c2cccc(S(=O)(=O)N3CCC4CCC(C(=O)NC(c5ccccc5)c5ccccc5)N4C(=O)C(NC(=O)C(C)NC)C3)c2)CCC2CCC(C(=O)NC(c3ccccc3)c3ccccc3)N2C1=O .
19.1

Give a short answer stating reported viability, T/C for CCN1C(C(=O)NC23CCC(C(=O)O)(CC2)CC3)C(c2cccc(Cl)c2F)C2(C(=O)Nc3cc(Cl)ccc32)C12CCCCC2 (stereo not drawn) + CNC(C)C(=O)NC1CN(S(=O)(=O)c2cccc(S(=O)(=O)N3CCC4CCC(C(=O)NC(c5ccccc5)c5ccccc5)N4C(=O)C(NC(=O)C(C)NC)C3)c2)CCC2CCC(C(=O)NC(c3ccccc3)c3ccccc3)N2C1=O .
21.5

###

Tested on: 755483-174-R-J1-PDC complex spheroid growth, percent test/control
MEASUREMENT PROTOCOL: Anticancer human tumor 755483-174-R-J1-PDC cell line growth inhibition [Asc];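 also: spheroids exposed to compounds for seven days before readout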
ASSAY CONTEXT: second compound 1 µM; first compound 0.949 µM; stronger effect = lower value
ENDPOINT LABEL: viability, T/C (%)
Express your answer in %, writing the number without its unit.

Give a short answer stating reported viability, T/C for Cc1nc(N2CCC3(CC2)COC(C)C3N)c(CO)nc1Sc1ccnc(N)c1Cl (stereo unspecified) + Cc1c(S(C)(=O)=O)c(-c2cc(F)cc(N3CCN(c4ccc(NS(=O)(=O)c5ccc(NC(CCN6CCC(C(=O)OCCCP(=O)(O)O)CC6)CSc6ccccc6)c(S(=O)(=O)C(F)(F)F)c5)cc4)CC3)c2)c(-c2ccc(Cl)cc2)n1C(C)C .
17.7

###

For each of the compounds below, state its IC50.
Tested on: 755483-174-R-J1-PDC complex spheroid growth, percent test/control
MEASUREMENT PROTOCOL: Anticancer human tumor 755483-174-R-J1-PDC cell line growth inhibition [Asc];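 also: spheroids exposed to compounds for seven days before readout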
ASSAY CONTEXT: curve of first compound; second compound 0.0949 µM
Express your answer in nM, writing the number without its unit.

Give a short answer stating reported IC50 for C=C(F)C(=O)N1CCN(c2nc(OCC3CCCN3C)nc3c2CCN(c2cccc4cccc(Cl)c24)C3)CC1CC#N (stereo not drawn) + CCN1C(C(=O)NC23CCC(C(=O)O)(CC2)CC3)C(c2cccc(Cl)c2F)C2(C(=O)Nc3cc(Cl)ccc32)C12CCCCC2 .
1660

Give a short answer stating reported IC50 for O=C(c1ccc(F)c(F)c1Nc1ccc(I)cc1F)N1CC(O)([C@@H]2CCCCN2)C1 + CCN1C(C(=O)NC23CCC(C(=O)O)(CC2)CC3)C(c2cccc(Cl)c2F)C2(C(=O)Nc3cc(Cl)ccc32)C12CCCCC2 .
338

Give a short answer stating reported IC50 for COc1c(OCCCN2CCOCC2)ccc2c3n(c(=NC(=O)c4cnc(N)nc4)nc12)CCN3 + CCN1C(C(=O)NC23CCC(C(=O)O)(CC2)CC3)C(c2cccc(Cl)c2F)C2(C(=O)Nc3cc(Cl)ccc32)C12CCCCC2 .
13.7

###

System: 755483-174-R-J1-PDC complex spheroid growth, percent test/control
MEASUREMENT PROTOCOL: Anticancer human tumor 755483-174-R-J1-PDC cell line growth inhibition [Asc];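 also: spheroids exposed to compounds for seven days before readout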
ASSAY CONTEXT: second compound 0.3 µM; first compound 3.16 µM; stronger effect = lower value
ENDPOINT LABEL: viability, T/C (%)
Express your answer in %, writing the number without its unit.

Give a short answer stating reported viability, T/C for C=CC(=O)N1CCN(c2nc(=O)n(-c3c(C)ccnc3C(C)C)c3nc(-c4c(O)cccc4F)c(F)cc23)C(C)C1 (centres undefined) + CCN1C(C(=O)NC23CCC(C(=O)O)(CC2)CC3)C(c2cccc(Cl)c2F)C2(C(=O)Nc3cc(Cl)ccc32)C12CCCCC2 .
125

Give a short answer stating reported viability, T/C for C=C(F)C(=O)N1CCN(c2nc(OCC3CCCN3C)nc3c2CCN(c2cccc4cccc(Cl)c24)C3)CC1CC#N (centres undefined) + CCN1C(C(=O)NC23CCC(C(=O)O)(CC2)CC3)C(c2cccc(Cl)c2F)C2(C(=O)Nc3cc(Cl)ccc32)C12CCCCC2 .
28.5

Give a short answer stating reported viability, T/C for C#Cc1c(F)ccc2cc(O)cc(-c3ncc4c(N5CC6CCC(C5)N6)nc(OCC56CCCN5CC(F)C6)nc4c3F)c12 (centres undefined) + CCN1C(C(=O)NC23CCC(C(=O)O)(CC2)CC3)C(c2cccc(Cl)c2F)C2(C(=O)Nc3cc(Cl)ccc32)C12CCCCC2 .
91.7

Give a short answer stating reported viability, T/C for O=C(c1cc(Cc2n[nH]c(=O)c3ccccc23)ccc1F)N1CCN(C(=O)C2CC2)CC1 + CCN1C(C(=O)NC23CCC(C(=O)O)(CC2)CC3)C(c2cccc(Cl)c2F)C2(C(=O)Nc3cc(Cl)ccc32)C12CCCCC2 .
52

###

For each of the molecules below, state its viability, T/C.
Tested on: 755483-174-R-J1-PDC complex spheroid growth, percent test/control
MEASUREMENT PROTOCOL: Anticancer human tumor 755483-174-R-J1-PDC cell line growth inhibition [Asc];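 also: spheroids exposed to compounds for seven days before readout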
ASSAY CONTEXT: second compound 0.3 µM; first compound 0.01 µM; stronger effect = lower value
Express your answer in %, writing the number without its unit.

Give a short answer stating reported viability, T/C for COc1c(OCCCN2CCOCC2)ccc2c3n(c(=NC(=O)c4cnc(N)nc4)nc12)CCN3 + CCN1C(C(=O)NC23CCC(C(=O)O)(CC2)CC3)C(c2cccc(Cl)c2F)C2(C(=O)Nc3cc(Cl)ccc32)C12CCCCC2 .
89.5

Give a short answer stating reported viability, T/C for CNC(C)C(=O)NC1CN(S(=O)(=O)c2cccc(S(=O)(=O)N3CCC4CCC(C(=O)NC(c5ccccc5)c5ccccc5)N4C(=O)C(NC(=O)C(C)NC)C3)c2)CCC2CCC(C(=O)NC(c3ccccc3)c3ccccc3)N2C1=O (stereo unspecified) + CCN1C(C(=O)NC23CCC(C(=O)O)(CC2)CC3)C(c2cccc(Cl)c2F)C2(C(=O)Nc3cc(Cl)ccc32)C12CCCCC2 .
80.9

Give a short answer stating reported viability, T/C for O=C(c1ccc(F)c(F)c1Nc1ccc(I)cc1F)N1CC(O)([C@@H]2CCCCN2)C1 + CCN1C(C(=O)NC23CCC(C(=O)O)(CC2)CC3)C(c2cccc(Cl)c2F)C2(C(=O)Nc3cc(Cl)ccc32)C12CCCCC2 .
109

Give a short answer stating reported viability, T/C for NC1CCC(NC2CC2c2ccccc2)CC1 (stereo unspecified) + CCN1C(C(=O)NC23CCC(C(=O)O)(CC2)CC3)C(c2cccc(Cl)c2F)C2(C(=O)Nc3cc(Cl)ccc32)C12CCCCC2 .
87.3

Give a short answer stating reported viability, T/C for Cn1ncnc1[C@H]1c2n[nH]c(=O)c3cc(F)cc(c23)N[C@@H]1c1ccc(F)cc1 + CCN1C(C(=O)NC23CCC(C(=O)O)(CC2)CC3)C(c2cccc(Cl)c2F)C2(C(=O)Nc3cc(Cl)ccc32)C12CCCCC2 .
42.7

Give a short answer stating reported viability, T/C for CCN1CCN(Cc2ccc(Nc3ncc(F)c(-c4cc(F)c5nc(C)n(C(C)C)c5c4)n3)nc2)CC1 + CCN1C(C(=O)NC23CCC(C(=O)O)(CC2)CC3)C(c2cccc(Cl)c2F)C2(C(=O)Nc3cc(Cl)ccc32)C12CCCCC2 .
103
